Organism: Mus musculus
protocol-text: PGE-2 levels were assayed in LPS stimulated RAW 264.7 macrophages for 20h in either presence or absence of compound
Type: functional
Please note: MET applies when PGE2 Level is 10 ng/mL or greater, and NOT MET applies otherwise.

Recorded results for 5 compounds are shown here.
[
  {
    "chemical-structure": "CCOC(=O)c1cc2ccccn2c(=S)n1",
    "category": "MET"
  },
  {
    "chemical-structure": "CS(=O)(=O)Nc1ccc([N+](=O)[O-])cc1OC1CCCCC1",
    "category": "NOT MET"
  },
  {
    "chemical-structure": "CCOC(=O)c1cc2ccccn2/c(=N/c2ccc(Cl)cc2)n1",
    "category": "NOT MET"
  },
  {
    "chemical-structure": "CCOC(=O)c1cc2ccccn2/c(=N/c2ccc(F)cc2)n1",
    "category": "MET"
  },
  {
    "chemical-structure": "CCOC(=O)c1cc2ccccn2c(=O)n1",
    "category": "MET"
  }
]

Now for a further compound.
Decide: is the reported value of PGE2 Level for CCOC(=O)c1cc2ccccn2/c(=N/c2ccc(C)cc2)n1 equal to or greater than 10 ng/mL?
MET
